# Target or test system: Pim1 (Homo sapiens, UniProt P11309)
# Sequence (P11309 whole entry): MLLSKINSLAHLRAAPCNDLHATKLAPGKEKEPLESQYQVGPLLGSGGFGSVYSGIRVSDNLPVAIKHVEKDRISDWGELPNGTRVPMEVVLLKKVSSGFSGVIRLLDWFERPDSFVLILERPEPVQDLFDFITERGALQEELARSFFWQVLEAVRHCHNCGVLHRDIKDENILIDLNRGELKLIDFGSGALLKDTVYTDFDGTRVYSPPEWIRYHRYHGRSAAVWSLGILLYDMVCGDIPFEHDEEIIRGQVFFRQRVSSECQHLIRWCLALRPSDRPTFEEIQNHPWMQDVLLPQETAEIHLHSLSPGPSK
pIC50: −log10 of the molar value. Structures can show the parent of a compound that is named as a salt.
Value kind: pIC50

These recorded examples may help you get a feel for the data.
Compound	pIC50
C[C@H]1CN(c2c(NC(=O)c3ccc(F)c(-c4c(F)cccc4F)n3)cnc3c2CC[C@H]3O)C[C@@H](N)[C@@H]1O [Compound 1]	≥ 7.00
C[C@H]1CN(c2c(NC(=O)c3ccc(F)c(-c4c(F)cccc4F)n3)cnc3c2CC[C@H]3O)C[C@@H](N)[C@@H]1O [phosphoric acid salt of Compound 1]	> 7.46

Input line: Look up and report pIC50, with Pim1 (Homo sapiens, UniProt P11309) as system, for C[C@H]1CN(c2c(NC(=O)c3ccc(F)c(-c4c(F)cccc4F)n3)cnc3c2CC[C@H]3O)C[C@@H](N)[C@@H]1O [dihydrochloric acid salt of Compound 1]
Output line: > 7.46
